Tested on: Escherichia coli 0-111
ASSAY PROTOCOL: Test for antimicrobial activity (turbidity): growth inhibiting concentration of antibiotics
Format: cell-based
EXPERIMENTAL SETUP: Escherichia coli, 0111, antimicrobial peptide (Seq. ID No. 27) 256 μg/ml
RECORDED ENDPOINT: MIC (µg/mL)

# SMILES, UNIT TEXT, READOUT VALUE
measured = [
    ("NC[C@H]1O[C@H](O[C@H]2[C@H](O)[C@@H](O[C@H]3O[C@H](CO)[C@@H](O)[C@H](N)[C@H]3O)[C@H](N)C[C@@H]2N)[C@H](O)[C@@H](O)[C@@H]1O", "µg/mL", 0.01),
    ("CC1(C)S[C@@H]2[C@H](NC(=O)Cc3ccccc3)C(=O)N2[C@H]1C(=O)O", "µg/mL", 0.1),
    ("CC1(C)S[C@@H]2[C@H](NC(=O)[C@H](N)c3ccccc3)C(=O)N2[C@H]1C(=O)O", "µg/mL", 0.1),
    ("CC(=O)OCC1=C(C(=O)O)N2C(=O)[C@@H](NC(=O)Cc3cccs3)[C@H]2SC1", "µg/mL", 0.01),
]
